Taken from PubChem BioAssay (EPA / NIEHS).

test-target: X-box-binding protein 1 (Homo sapiens) (UniProt P17861)
Sequence (P17861 whole entry, looked up): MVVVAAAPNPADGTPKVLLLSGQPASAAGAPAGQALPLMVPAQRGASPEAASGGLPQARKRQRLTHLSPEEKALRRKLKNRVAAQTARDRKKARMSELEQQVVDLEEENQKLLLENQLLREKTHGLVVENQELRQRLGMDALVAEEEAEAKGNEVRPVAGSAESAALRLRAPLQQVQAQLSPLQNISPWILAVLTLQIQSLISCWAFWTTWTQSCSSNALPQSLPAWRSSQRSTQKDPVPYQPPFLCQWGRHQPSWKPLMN
assay-details: ATG_Xbp1_CIS: Attagene CIS-FACTORIAL HepG2 Assay for human X-box Binding Protein 1 (XBP1) (AID 2282972)
run-conditions: HepG2 XBP1 cis-element reporter, Attagene multiplex; actives raise or lower the signal
The source made the active and inactive calls. The calls were made as follows: active = hit-call score of the fitted dose curve at least 0.9, where 1 is the maximum; inactive = score below 0.9.
Tick one outcome: active, inactive

Which outcome was assigned to `CC[C@H](C)C(=O)O[C@H]1C[C@H](O)C=C2C=C[C@H](C)[C@H](CC[C@@H](O)C[C@@H](O)CC(=O)O)[C@H]21` in this test?
inactive

Field: outcome | Entry: `C=CCc1cc(S(=O)(=O)c2ccc(O)c(CC=C)c2)ccc1O`
inactive

Assay result, entry `c1ccc(C(O[C@@H]2CCCN(CCc3ccc4c(c3)OCO4)C2)c2ccccc2)cc1` — outcome?
active

What did the test return for `CC(C)C(=O)Nc1ccc([N+](=O)[O-])c(C(F)(F)F)c1` ?
active

For `Cc1nccn1-c1ccc(Sc2cccc(C3(C(N)=O)CCOCC3)c2)cc1` , which call appears in the assay record?
active

Kindly provide the recorded test outcome for the following molecule: `O=C(O)CO`
inactive

Could you kindly confirm the outcome this assay logged for `CNC(C)=O` ?
inactive

Could you please tell me the result logged for CC(C)CCCCCCOC(=O)C1CCCCC1C(=O)OCCCCCCC(C)C (centres undefined) in this assay?
inactive

Test call, this molecule: `CCCc1ccccc1`
inactive

Which outcome was entered for the molecule `O=S(=O)(O)CCC(F)(F)C(F)(F)C(F)(F)C(F)(F)C(F)(F)C(F)(F)F` in this test?
inactive

Hello, I am checking results. What call was entered for `O=C(N[C@H](CO)[C@H](O)c1ccc([N+](=O)[O-])cc1)C(Cl)Cl` ?
inactive

Per the records of this test, what outcome belongs to `OC[C@H]1O[C@@](CO)(O[C@H]2O[C@H](CO)[C@@H](O)[C@H](O)[C@H]2O)[C@@H](O)[C@@H]1O` ?
inactive

What was the test verdict on `Cn1c(=O)c2[nH]cnc2n(C)c1=O` ?
inactive

Which result was noted for this molecule in the test: `O=c1[nH]cnc2c1ncn2[C@H]1CC[C@@H](CO)O1`
inactive

So what was the verdict on `O=C(Cl)C(F)(F)C(F)(F)C(F)(F)C(=O)Cl` in this test?
inactive

Name the outcome recorded for `CCCCCCCCCCCCCCCCOS(=O)(=O)O` in the assay.
inactive

// return assay outcome for `C=CN1CCCC1=O`
inactive

Called result for `NC(=O)N1c2ccccc2C=Cc2ccccc21`
inactive

Field: outcome | Entry: `O=C(O)[C@H](O)[C@@H](O)C(=O)O`
inactive

Look up the recorded call for `NC(=O)N(O)[C@@H]1COc2cc(OCc3ccccc3)ccc21` in this test.
inactive

GET /call?item= `NNC(=O)c1ccncc1` returns the recorded outcome of this test.
inactive

So what was the verdict on `OCCOCCOCCO` in this test?
inactive

So what was the verdict on `Cc1nc(-c2ccccn2)ncc1C(=O)Nn1cc(C)c2cc(F)ccc21` in this test?
inactive

Any idea what this test logged for `FC(F)(F)C(F)(F)C(F)(F)C(F)(F)C(F)(F)C(F)(F)I` ?
inactive

* * *

Read-out: Monokine induced gamma interferon (MIG), CXCL9 (gene 4283)
assay-details: BSK_SAg_MIG: BioMAP Diversity Plus: SAg Assay for Monokine induced gamma interferon (MIG) Biomarker Activity (AID 2283092)
run-conditions: primary human HUVEC with PBMC; actives raise or lower the signal
Protocol: BSK_SAg is a cell-based, multiplexed-readout assay that uses umbilical vein endothelium and peripheral blood mononuclear cells, a human vascular primary cell co-culture, with measurements taken at 24 hours after chemical dosing in a 96-well plate.BSK_SAg_MIG is an assay component measured in the BSK_SAg assay. It measures MIG antibody related to regulation of gene expression using ELISA technology.Data from the assay component BSK_SAg_MIG was analyzed into 1 assay endpoint. […]
Active and inactive are the calls of the source. The calls were made as follows: active = hit-call score of the fitted dose curve at least 0.9, where 1 is the maximum; inactive = score below 0.9.
Choose one outcome from this list and give only that: T (active), F (inactive)

For `S=P(N1CC1)(N1CC1)N1CC1` , which call appears in the assay record?
F

GET /call?item= `O=C(NO)C1(NS(=O)(=O)c2ccc(Oc3ccc(F)cc3)cc2)CCOCC1` returns the recorded outcome of this test.
F

Hello, I am checking results. What call was entered for `c1ccc(C(O[C@@H]2CCCN(CCc3ccc4c(c3)OCO4)C2)c2ccccc2)cc1` ?
T

Just curious, what result did `CC[C@H](C)C(=O)O[C@H]1C[C@H](O)C=C2C=C[C@H](C)[C@H](CC[C@@H](O)C[C@@H](O)CC(=O)O)[C@H]21` get here?
F

Field: outcome | Entry: `NC(=O)N1c2ccccc2C=Cc2ccccc21`
F

Give the logged outcome of this assay for the following compound: `OCc1ccccc1`
F

Hey, what did the test say about CC(C)CC(C)O (stereo not given) ?
F

Tell me the recorded outcome of this test for `C=CCc1cc(S(=O)(=O)c2ccc(O)c(CC=C)c2)ccc1O` .
T

For `c1ccc2ncccc2c1` , which call appears in the assay record?
F

Could you please tell me the result logged for `COS(C)(=O)=O` in this assay?
F

Write down the call the test reported for this compound. Item: `O=C(Cl)C(F)(F)C(F)(F)C(F)(F)C(=O)Cl`
F

Any idea what this test logged for CCCCC(CC)C(=O)OCCOCCOCCOC(=O)C(CC)CCCC (stereo not given) ?
F

For this compound, state the assay outcome: `Nc1ccn([C@@H]2O[C@H](CO)[C@@H](O)[C@@H]2O)c(=O)n1`
F

Per the assay record, what outcome was assigned to `NC(=O)N(O)[C@@H]1COc2cc(OCc3ccccc3)ccc21` ?
F

// param item: `OC(O)(C(F)C(O)(O)C(F)(F)F)C(F)(F)F` ; yields the recorded call
F
